Numbers sourced from PubChem BioAssay (NCI).

testMethodNotes: NCI Yeast Anticancer Drug Screen. Data for the mlh1 rad18 strain (AID 175)
protocolConditions: S. cerevisiae mlh1 rad18 strain growth inhibition; at 50.0 µM; stronger effect = higher value
Method: Growth inhibition of yeast strains with defined genetic alterations is measured as a screen for potential anti-cancer activity. Selected strains with alterations in DNA damage repair or cell cycle control were exposed to compounds and growth inhibition was measured relative to vehicle treated controls. The strain used in this assay is mlh1 rad18
Compounds without any hit were thinned out: in the full panel of roughly 79,000, 15% have a hit. The source made the active and inactive calls. Cut-off read from the data, not from the text of the source: active = growth inhibition above about 70%; inactive = the rest.
endpointName: growth inhibition

As a guide, the following entries are already answered.
Fc1cc(Cl)c(F)cc1Cl: -27.4% (inactive)
Cc1cc(Cc2ccc(NC(=O)N3CC3)c(C)c2)ccc1NC(=O)N1CC1: -18.9% (inactive)

Fill in growth inhibition for each of the 8 molecules listed.
1. Cc1cc(C)n(-c2ccnc(-n3nc(C)cc3C)n2)n1
2. Cc1c(O)c2ccccc2n(C)c1=O
3. O=[N+]([O-])c1ccc(N/N=C/C2CC=CCC2)c([N+](=O)[O-])c1 (stereo not given)
4. C#CCCOC(=O)c1ccccc1OC(C)=O
5. Cc1ccc(S(=O)(=O)NC(=O)C2S(=O)(=O)OCCOS2(=O)=O)cc1
6. CN(C(=O)CCCO)c1cc([N+](=O)[O-])ccc1OCc1ccccc1
7. C/C(Nc1ccc(F)cc1)=C1/CCOC1=O
8. O=C1CCSc2nc(-c3ccc4c(c3)OCO4)nn21

-- reply
["40.3% (inactive)", "-6.8% (inactive)", "5.25% (inactive)", "5.15% (inactive)", "-16.4% (inactive)", "-0.75% (inactive)", "-11.5% (inactive)", "9.2% (inactive)"]

Fill in growth inhibition for each of the 5 molecules listed.
1. CN(C)CCSCC(=O)N1c2ccccc2Sc2ccc(Cl)cc21
2. Cc1cccc(NC(=O)/C=C/c2ccc(N(CCC#N)CCC#N)cc2C)c1
3. Cc1ccc(N=Cc2cc(Cl)cc(Cl)c2OC(=O)c2ccccc2)cc1C
4. COC(=O)c1nnn(-c2cc(Cl)ccc2Cl)c1C(=O)c1ccc(OC)cc1
5. Cc1c([N+](=O)[O-])cc2c(c1[N+](=O)[O-])C(=O)c1ccccc1-2

-- reply
-0.5% (inactive)
19.9% (inactive)
93.3% (active)
-3.25% (inactive)
7.9% (inactive)

Fill in growth inhibition for each of the 4 molecules listed.
1. COc1cccc(C2C3=C(COC3=O)Oc3cc4c(cc32)OCO4)c1 (stereo not given)
2. CSc1nc(N)c(NS(=O)(=O)c2ccc(NC(C)=O)cc2)c(=O)[nH]1
3. COc1cc(CC/C(C)=N/O)ccc1OCc1ccccc1
4. COC(=O)C1=C(C(=O)OC)C2CCCOC2=C(C)C1 (stereo not given)

-- reply
1. -14.2% (inactive)
2. 15.4% (inactive)
3. -22.8% (inactive)
4. 7% (inactive)

Fill in growth inhibition for each of the 8 molecules listed.
1. CC[N+](CC)=c1ccc2nc3c(cc(Nc4ccccc4)c4ccccc43)oc-2c1.[Cl][Zn][Cl]
2. CCCCCCCCCCCCCCCCCC(=O)OCC1OC(OC2(OC(=O)CCCCCCCCCCCCCCCCC)OC(COC(=O)CCCCCCCCCCCCCCCCC)C(OC(=O)CCCCCCCCCCCCCCCCC)C2OC(=O)CCCCCCCCCCCCCCCCC)C(OC(=O)CCCCCCCCCCCCCCCCC)C(OC(=O)CCCCCCCCCCCCCCCCC)C1OC(=O)CCCCCCCCCCCCCCCCC (stereo not given)
3. Cc1ccc(S(=O)(=O)N2CCCC(O)c3ccccc32)cc1 (stereo not given)
4. Cn1[nH]c(=O)c2ncccc2c1=O
5. COc1cc(C2C(C(=O)O)=C(COC(C)=O)Oc3cc4c(cc32)OCO4)cc(OC)c1OC (stereo not given)
6. CN(C)C1CS(=O)(=O)C1c1ccccc1 (stereo not given)
7. O=C(/C=C/c1ccccc1)Nc1ccccc1C(F)(F)F
8. O=[N+]([O-])c1ccc(OCc2ccccc2)c(Cl)c1

-- reply
1: 15.4% (inactive); 2: 23.8% (inactive); 3: 3.85% (inactive); 4: 4.95% (inactive); 5: -8.6% (inactive); 6: 1.45% (inactive); 7: 18.2% (inactive); 8: 30.4% (inactive)

Fill in growth inhibition for each of the 5 molecules listed.
1. Clc1cccc(Cl)c1/C=N/Nc1nnc(N/N=C/c2c(Cl)cccc2Cl)c2ccccc12
2. c1ccc2c(c1)c1ccccc1n2Cn1c2ccccc2c2ccccc21
3. CN(C)NC(=O)Nc1ccc2ccccc2c1
4. O=C1C(=O)c2ccccc2C(O)=C1c1ccc(Br)cc1
5. COc1cc(C(=O)C(O)c2cc(OC)c(OC)c(OC)c2)cc(OC)c1OC (stereo not given)

-- reply
1. 34.4% (inactive)
2. 4.85% (inactive)
3. -24.4% (inactive)
4. -8.9% (inactive)
5. 28.3% (inactive)

Fill in growth inhibition for each of the 8 molecules listed.
1. CCCCC(CC)COC(=O)Cc1ccccc1 (stereo not given)
2. O=C(CCl)NCCCCCNC(=O)CCl
3. O=C(Nc1ccc(S(=O)(=O)N2CCCCC2)cc1)OC1CCCC1
4. CCC(=O)OCC[N+](C)(C)C
5. NC(N)=NCCCS
6. O=C(O)c1ccc(O)cn1
7. OC(C(c1ccccc1)N1CCCCC1)C(O)(c1ccccc1)c1ccccc1 (stereo not given)
8. CCOC(=O)C1CC1C#N (stereo not given)

-- reply
34.7% (inactive)
17.6% (inactive)
-12.6% (inactive)
-20.9% (inactive)
7.05% (inactive)
2.55% (inactive)
-0.5% (inactive)
7.75% (inactive)

Fill in growth inhibition for each of the 5 molecules listed.
1. Cc1cc[n+]2c(c1)-c1cc(C)cc[n+]1CC2
2. COC(=O)N(c1ccccc1)c1ccccn1
3. COc1cc(C2c3cc4c(c(OS(=O)(=O)O)c3CC3COC(=O)C32)OCO4)cc(OC)c1OC (stereo not given)
4. CCOC(=O)CC/C(C)=N/NC(=O)c1ccc[n+](C)c1
5. COc1ccc(-c2cc(=O)c3c(O)cc(O)c(-c4cc(-c5cc(=O)c6c(O)cc(OC)cc6o5)ccc4OC)c3o2)cc1

-- reply
1. 6.3% (inactive)
2. -22.6% (inactive)
3. 7.4% (inactive)
4. 2.65% (inactive)
5. 20% (inactive)

* * *

testMethodNotes: NCI Yeast Anticancer Drug Screen. Data for the rad50 strain (AID 155);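 note: 0% = growth of vehicle-only cultures of the same strain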
protocolConditions: S. cerevisiae rad50 strain growth inhibition; at 50.0 µM
This is part of a sample that, as a whole, favours compounds with a hit. Of some 79,000 tested, about 15% had one in any assay. Calls of active or inactive are those of the source. Cut-off read from the data, not from the text of the source: active = growth inhibition above about 70%; inactive = the rest.
Your response should consist of one outcome taken from class 1 (active), class 0 (inactive)

CC1(C)C2(SCCS2)C(C)(C)C12SCCS2: class 0
CCOc1ccc(OCC)c(NC(C)=O)c1: class 0
CC(=O)Oc1cc(C)ccc1C: class 0
Cc1ccc2nc(N(C)C)cc(N(C)C)c2c1: class 0
CN1CCN(P(=O)(c2ccccc2)N2CCN(C)CC2)CC1: class 0

-- ask Dear all, I need the recorded test outcome for `Nc1c(S(=O)(=O)O)cc(S(=O)(=O)O)c2ccc(N=Nc3ccccc3)c(O)c12` , thank you.
-- reply class 0

-- ask Dear all, I need the recorded test outcome for O=C1CSC2=NC3=C(CSC/C3=C\c3ccccc3)C(c3ccccc3)N12 (stereo not given) , thank you.
-- reply class 0

-- ask Dear all, I need the recorded test outcome for CC(=O)OCC1OC(n2cc(F)c(=O)[nH]c2=O)C(NC(=O)N(CCCl)N=O)C(OC(C)=O)C1OC(C)=O (stereo not given) , thank you.
-- reply class 0

-- ask Dear all, I need the recorded test outcome for `Cc1nc2ccc(Cl)cc2c(=O)[nH]1` , thank you.
-- reply class 0

* * *

I'd be grateful if you could share measured growth inhibition for these entries.
testMethodNotes: NCI Yeast Anticancer Drug Screen. Data for the cln2 rad14 strain (AID 165);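 note: 0% = growth equal to vehicle treated cultures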
protocolConditions: S. cerevisiae cln2 rad14 strain, at 50.0 µM, stronger effect = higher value
About 79,000 compounds went through this panel and 15% of them were active in at least one assay; those are over-represented in the sample as a whole. Activity calls are given as the source filed them. Cut-off read from the data, not from the text of the source: active = growth inhibition above about 70%; inactive = the rest.

CCCC(O)C(C)[N+](=O)[O-] (configuration not stated): 4.75% (inactive)

Fill in growth inhibition for each of the 8 compounds listed.
1. O=C1CCCC(=S)N1
2. CCC/C(=N/NC(N)=O)C1=CCCCC1
3. CC1C=CC(C(N)C(=O)O)O1 (configuration not stated)
4. CCC[CH2][Ge]([CH2]CCC)([CH2]CCC)[O]C(=O)CCl
5. Nc1nnc2nc(CC(=O)c3ccc4ccccc4c3)c(=O)[nH]n12
6. CCCc1c(O)c2ccccc2[nH]c1=O
7. COc1cc(C2OCC3C(c4ccc(O)c(OC)c4)OCC23)ccc1O (configuration not stated)
8. CC(=O)Nc1ccc(/C=N/NC(=S)Nc2cccc3cccnc23)cc1

-- reply
["16.8% (inactive)", "-28.4% (inactive)", "-0.7% (inactive)", "-52.9% (inactive)", "-21.2% (inactive)", "14.7% (inactive)", "23.4% (inactive)", "10.5% (inactive)"]
